- systemUnderTest: human CRTH2 (Homo sapiens, UniProt Q9Y5Y4)
- Construct: expressed in transfected cells
- assayProtocol: [35S]GTPγS binding assay (SPA) on membranes from CHO-K1 cells stably expressing human CRTH2, stimulated with 60 nM DHK-PGD2
- Type: biochemical
- setupConditions: potency class symbols; Table 2; read-out: CRTH2 hGTPγS IC50
pIC50: −log10 of the molar value.
As shown below, each of these compounds has a reported pIC50 value.

CN(Cc1ccc(OCC(=O)O)c(-c2cccc(C(N)=O)c2)c1)S(=O)(=O)c1ccc(F)cc1 = 6.00 to 7.00
CN(Cc1ccc(OCC(=O)O)c(-c2cc(F)ccc2F)c1)S(=O)(=O)c1ccc(F)cc1 = 6.00 to 7.00
CN(Cc1ccc(OCC(=O)O)c(-c2cc(F)cc(F)c2)c1)S(=O)(=O)c1ccc(Cl)c(Cl)c1 = > 7.00

Query :: What value of measured pIC50 is listed for `CN(Cc1ccc(OCC(=O)O)c(-c2cccc(C(F)(F)F)c2)c1)S(=O)(=O)c1ccccc1Cl` ?
Result :: 5.00 to 6.00

Query :: If you can, please state the reported pIC50 value of `CN(Cc1ccc(OCC(=O)O)c(-c2cc(F)cc(C#N)c2)c1)S(=O)(=O)c1cc(F)cc(F)c1` .
Result :: > 7.00

Query :: Look up pIC50: `CNC(=O)c1cccc(-c2cc(CN(C)S(=O)(=O)c3ccc(F)cc3)ccc2OCC(=O)O)c1`
Result :: 6.00 to 7.00

Query :: Which pIC50 value belongs to `CN(Cc1ccc(OCC(=O)O)c(-c2cccc(C#N)c2)c1)S(=O)(=O)c1ccc(Cl)c(Cl)c1` ?
Result :: > 7.00

---

# Lookup of reported pIC50 keyed by entry
- systemUnderTest: human CRTH2 (Homo sapiens, UniProt Q9Y5Y4)
- Construct: expressed in transfected cells
- assayProtocol: [35S]GTPγS binding assay (SPA) on membranes from CHO-K1 cells stably expressing human CRTH2, stimulated with 60 nM DHK-PGD2
- Format: biochemical
- setupConditions: potency class symbols; Table 2; read-out: CRTH2 hGTPγS IC50
pIC50: −log10 of the molar value.

Would you please look over these solved cases?
CN(Cc1ccc(OCC(=O)O)c(-c2cc(F)cc(C#N)c2)c1)S(=O)(=O)c1ccccc1 = > 7.00
CN(Cc1ccc(OCC(=O)O)c(-c2cccc(C(F)(F)F)c2)c1)S(=O)(=O)c1cccnc1 = 6.00 to 7.00
CN(Cc1ccc(OCC(=O)O)c(-c2cccc(S(C)(=O)=O)c2)c1)S(=O)(=O)c1cccc(F)c1 = > 7.00

Query :: Request the reported pIC50 associated with `CN(Cc1ccc(OCC(=O)O)c(-c2cccc(C#N)c2)c1)S(=O)(=O)c1cccc(C(F)(F)F)c1`
Result :: 6.00 to 7.00

---

Below is a list of entries, each paired with its recorded IC50 value.
- systemUnderTest: human CRTH2 (Homo sapiens)
- Construct: expressed in transfected cells
- Sequence (Q9Y5Y4 1-395): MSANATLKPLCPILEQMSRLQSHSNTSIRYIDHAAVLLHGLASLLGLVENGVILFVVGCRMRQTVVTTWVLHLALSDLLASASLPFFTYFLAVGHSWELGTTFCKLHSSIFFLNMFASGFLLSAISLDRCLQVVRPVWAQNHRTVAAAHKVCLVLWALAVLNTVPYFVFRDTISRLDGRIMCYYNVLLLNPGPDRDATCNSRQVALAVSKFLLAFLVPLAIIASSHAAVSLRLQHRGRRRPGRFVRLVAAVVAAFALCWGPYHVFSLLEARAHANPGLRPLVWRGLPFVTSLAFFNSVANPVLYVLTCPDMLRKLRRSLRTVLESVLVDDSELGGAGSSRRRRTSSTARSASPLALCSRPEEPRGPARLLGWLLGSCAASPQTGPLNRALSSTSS
- assayProtocol: [35S]GTPγS binding assay (SPA) on membranes from CHO-K1 cells stably expressing human CRTH2, stimulated with 60 nM DHK-PGD2
- Type: biochemical
- setupConditions: potency class symbols; Table 2; read-out: CRTH2 hGTPγS IC50

Query :: Find the measured IC50: item `COc1cc(S(=O)(=O)N(C)Cc2ccc(OCC(=O)O)c(-c3cccc(C#N)c3)c2)ccc1F` , target or system human CRTH2 (Homo sapiens).
Result :: 100 to 1000 nM
